- tested_system: Calmodulin-1 (Homo sapiens)
- method_description: calcium-bound CALM1 binders on microarrays, profiling panel, artefact control for SMM control-protein annotation, biochemical, small-molecule microarray, Cy5-labelled CALM1, plus calcium (AID 1112);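 further: score merges spot fluorescence with signal to noise from triplicate slides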
- measurement_setup: Cy5-CALM1 binding fluorescence, higher = more signal
Please use the following composite z-score ranges when assigning a class: zone 1 (below -0.2), zone 2 (-0.2 to below 0.5), zone 3 (0.5 or more)

Consider the worked cases shown below.
CN1C(=O)C2C(C1=O)C1C=C(CCCO)C2C(c2cccs2)N1Cc1cc2c(cc1Br)OCO2 (stereo not drawn) ... zone 3
CCOC(=O)C[C@H]1[C@H](OC(=O)c2cc3ccccc3oc2=O)[C@@H](NC(=O)c2ccc3ccccc3c2)c2cc(OCCCO)ccc2N1C(=O)Cc1ccc(OC)cc1 ... zone 1
C=C(CCCC)C(=O)CC[C@@H](OC(=O)c1cccnc1)c1ccc(OCCO)cc1 ... zone 1
CO[C@H]1O[C@H](CO)[C@@H](OC(=O)Nc2cccc(F)c2)[C@H](OC(=O)Nc2ccccc2-c2ccccc2)[C@H]1OC(=O)Nc1ccccc1-c1ccccc1 ... zone 1
C=CCC(OC(C)=O)[C@@H]1[C@@H](N(Cc2cccc3ccccc23)C(=O)Cc2ccc(F)cc2)c2cc(OCCCO)ccc2N1C(=O)c1ccc(-c2ccccc2)cc1 (stereo partly drawn) ... zone 3
C=CCOC(=O)[C@H]1[C@@H]2C(=O)O[C@@H](c3ccccc3)[C@@H](c3ccccc3)N2[C@@H](c2ccc(OCCOC(=O)[C@H]3C[C@H]4C(=O)N[C@@H](CCCCNC(C)=O)C(=O)N4[C@H]3c3cccc(OCCO)c3)cc2)[C@]12C(=O)Nc1ccc(I)cc12 ... zone 1

As a next step, examine the molecule that follows.
Lookup: Any idea which band COCCOC(=O)N1C(=O)[C@@]2(c3cc(C#CC4(O)CCCCCC4)ccc31)[C@H](c1ccc(OCCO)cc1)N1[C@H](c3ccccc3)[C@H](c3ccccc3)OC(=O)[C@H]1[C@@H]2C(=O)Nc1nc2ccccc2s1 is in?
Found: zone 2

* * *

- method_description: inhibitors of hydroxyurea-induced Chk1 phosphorylation, primary screen, imaging, HeLa, phospho-Chk1 nuclear intensity (AID 1187); further: test concentration not given here
- measurement_setup: hydroxyurea-induced phospho-Chk1 immunofluorescence imaging, higher = more signal
Label rule, in plain words: z-score of -0.4 and up is Y, under -0.4 is N.

CN(C)CCCCNC(=O)[C@H]1C[C@H]2C(=O)N[C@@H](CCCC[N+](C)(C)C)C(=O)N2[C@H]1c1ccc(O)cc1 ... N

As a next step, examine the compound that follows.
Lookup: Quick check: does Cc1nc2cc(Br)ccc2c(=O)n1Cc1cccc(O)c1 have z-score greater than or equal to -0.4?
Found: Y

* * *

- method_description: MM1S cell viability effects, profiling panel, calcein-AM fluorescence, 48 h, basal (AID 1165);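 further: viability of MM1S multiple myeloma cells under basal unstimulated conditions; test concentration not given here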
- measurement_setup: higher = more signal
Listed here: items and their measured z-score.
Respond numerically, and do not add a unit to the figure.

Observe how each entry below is paired with its result.
CN(C)C(=O)[C@@]1(CCC(=O)OC(C)(C)C)N=C(c2ccc(OCCCO)cc2)O[C@H]1c1ccccc1CN=[N+]=[N-] ... -0.124
CCOC(=O)C=Cc1cc(F)ccc1O ... -0.633
O=C1N[C@@H](Cc2ccccc2)C(=O)N2[C@@H]1C[C@@H](C(=O)O)[C@H]2c1ccc(O)cc1 ... -3.36
COc1ccc(C(=O)Nc2cccc(CN3C(=O)[C@@]4(O[C@@H](CC(=O)N(CCO)Cc5ccccc5)[C@H]([Si](C)(C)c5ccc(OC)cc5)[C@H]4C)c4ccccc43)c2)cc1 ... -0.696
C=CCN1C(=O)[C@]2(O[C@H](CCO)[C@@H]([Si](C)(C)c3ccc(OC)cc3)[C@@H]2C)c2cc(NC(=O)c3ccc(OC)cc3)ccc21 ... -2.69
CC(C)OC(=O)CC(=O)CC(O)c1ccc([N+](=O)[O-])cc1 (stereo unspecified) ... 0.772
CCOC(=O)C1=CC[C@@H](c2ccccc2)N(S(=O)(=O)c2ccc(C)cc2)[C@H]1C=Cc1ccccc1 ... -0.149
C=C(/C(=C/C[C@H](OC(=O)c1ccncc1)c1ccccc1OCCO)c1cnc2ccccc2c1)C(C)C ... -1.26
CN(C)CCCCCCNC(=O)[C@@H]1C[C@@H]2C(=O)N[C@@H](CCCCN)C(=O)N2[C@@H]1c1ccc(O)cc1 ... 0.56
CCOC(=O)C1=C[C@@H](C(C)(C)C)N(S(=O)(=O)c2ccc(C)cc2)[C@H]1c1cccc(Cl)c1 ... -2.77

# context switch: different molecule, same z-score
Lookup: Requested read-out: z-score. Entry: Cc1cccc([C@H]2C[C@H]3C(Br)=C[C@@H]2C(=O)[C@]32CO2)c1
Found: -3.14

* * *

Listed here: items and their measured composite z-score.
- tested_system: Neurogenic locus notch homolog protein 3 (Homo sapiens) (UniProt Q9UM47)
- Sequence (Q9UM47 whole entry, looked up): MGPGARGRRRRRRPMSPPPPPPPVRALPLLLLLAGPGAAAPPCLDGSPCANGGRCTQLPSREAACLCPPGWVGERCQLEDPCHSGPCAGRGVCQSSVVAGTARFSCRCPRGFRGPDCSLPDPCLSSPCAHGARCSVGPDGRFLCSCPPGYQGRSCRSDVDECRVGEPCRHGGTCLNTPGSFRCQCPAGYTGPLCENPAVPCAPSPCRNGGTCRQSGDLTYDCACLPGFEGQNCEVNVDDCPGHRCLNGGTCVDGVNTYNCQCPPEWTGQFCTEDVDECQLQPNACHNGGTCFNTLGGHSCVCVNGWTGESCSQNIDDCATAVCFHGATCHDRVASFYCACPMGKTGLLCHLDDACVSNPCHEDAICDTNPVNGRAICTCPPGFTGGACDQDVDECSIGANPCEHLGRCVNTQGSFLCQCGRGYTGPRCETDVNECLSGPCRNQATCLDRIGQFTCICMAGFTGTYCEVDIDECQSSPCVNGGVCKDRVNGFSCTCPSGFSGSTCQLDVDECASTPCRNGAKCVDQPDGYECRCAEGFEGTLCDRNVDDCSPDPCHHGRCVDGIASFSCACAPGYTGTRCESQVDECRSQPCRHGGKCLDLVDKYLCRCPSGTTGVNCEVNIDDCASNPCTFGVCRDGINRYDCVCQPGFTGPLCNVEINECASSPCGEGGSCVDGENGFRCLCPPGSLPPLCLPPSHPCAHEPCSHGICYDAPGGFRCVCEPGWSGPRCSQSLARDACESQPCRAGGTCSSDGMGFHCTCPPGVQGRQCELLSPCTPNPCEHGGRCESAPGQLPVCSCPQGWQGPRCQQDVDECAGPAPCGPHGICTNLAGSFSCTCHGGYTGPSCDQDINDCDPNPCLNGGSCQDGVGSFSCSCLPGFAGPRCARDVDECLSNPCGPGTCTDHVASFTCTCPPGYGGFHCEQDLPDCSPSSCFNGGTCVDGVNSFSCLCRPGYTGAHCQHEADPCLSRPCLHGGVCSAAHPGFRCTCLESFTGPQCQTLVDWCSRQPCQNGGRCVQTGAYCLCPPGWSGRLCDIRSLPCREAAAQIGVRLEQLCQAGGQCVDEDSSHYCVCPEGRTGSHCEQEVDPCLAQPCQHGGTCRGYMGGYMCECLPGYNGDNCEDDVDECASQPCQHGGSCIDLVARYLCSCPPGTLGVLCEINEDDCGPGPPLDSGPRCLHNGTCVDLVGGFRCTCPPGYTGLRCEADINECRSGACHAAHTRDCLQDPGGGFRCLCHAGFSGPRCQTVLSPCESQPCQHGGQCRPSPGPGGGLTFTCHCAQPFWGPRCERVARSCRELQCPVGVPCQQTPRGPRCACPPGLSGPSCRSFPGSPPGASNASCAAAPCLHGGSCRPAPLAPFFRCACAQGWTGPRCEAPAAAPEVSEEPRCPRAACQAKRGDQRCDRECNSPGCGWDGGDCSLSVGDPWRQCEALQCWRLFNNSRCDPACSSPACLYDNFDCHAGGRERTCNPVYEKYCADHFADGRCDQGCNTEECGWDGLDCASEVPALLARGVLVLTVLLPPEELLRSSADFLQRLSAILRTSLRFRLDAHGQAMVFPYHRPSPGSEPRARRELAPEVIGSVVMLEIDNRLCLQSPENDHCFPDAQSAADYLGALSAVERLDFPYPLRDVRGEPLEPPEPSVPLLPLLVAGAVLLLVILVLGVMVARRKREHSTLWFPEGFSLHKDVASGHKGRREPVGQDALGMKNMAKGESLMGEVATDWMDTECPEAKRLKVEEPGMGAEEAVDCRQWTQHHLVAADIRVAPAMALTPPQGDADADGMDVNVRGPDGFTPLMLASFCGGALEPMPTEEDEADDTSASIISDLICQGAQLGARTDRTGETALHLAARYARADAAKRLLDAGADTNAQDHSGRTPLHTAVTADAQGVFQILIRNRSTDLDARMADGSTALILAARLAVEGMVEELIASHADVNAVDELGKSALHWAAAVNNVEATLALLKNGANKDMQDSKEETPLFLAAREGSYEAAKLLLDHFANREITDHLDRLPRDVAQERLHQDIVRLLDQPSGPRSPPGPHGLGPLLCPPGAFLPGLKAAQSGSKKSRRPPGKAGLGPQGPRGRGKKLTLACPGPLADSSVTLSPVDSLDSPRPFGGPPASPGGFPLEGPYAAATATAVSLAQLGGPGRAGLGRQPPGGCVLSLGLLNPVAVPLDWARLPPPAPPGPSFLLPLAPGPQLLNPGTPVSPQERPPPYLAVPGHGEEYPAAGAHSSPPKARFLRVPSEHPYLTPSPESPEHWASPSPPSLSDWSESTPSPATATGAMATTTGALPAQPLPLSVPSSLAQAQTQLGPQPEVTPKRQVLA
- method_description: NOTCH3 binders on small-molecule microarray, primary screen, biochemical, 635/667 nm fluorescence (AID 1096)
- measurement_setup: NOTCH3 binding, 635 nm fluorescence, higher = more signal

Observe how each entry below is paired with its result.
COCCCNC(=O)[C@@H]1c2ccccc2C(=O)N(C2Cc3ccccc3C2)[C@H]1c1ccc(CO)cc1 ... -0.0847
COC(=O)[C@@]1(Cc2ccccc2CN=[N+]=[N-])N=C(c2ccc(OCCCO)cc2)O[C@H]1c1ccccc1CN=[N+]=[N-] ... -0.498

Lookup: Requested read-out: composite z-score. Entry: COC(=O)[C@@]1(Cc2ccc(OC)cc2)[C@H]2c3cc(C(=O)N4CCCC4)n(Cc4cc(C)n(C)n4)c3C[C@H]2CN1C(=O)c1ccccc1
Found: 1.04

Lookup: Requested read-out: composite z-score. Entry: COc1ccc(C(O)C2C=CC3C(=O)N(c4ccccc4)C(=O)C3N2Nc2ccc(C(C)C)cc2)c2ccccc12 (stereo not drawn)
Found: 1.07

* * *

- method_description: A549 cell viability effects, profiling panel, calcein-AM fluorescence, 48 h, basal (AID 1162); further: test concentration not given here
- measurement_setup: higher = more signal
Label rule, in plain words: z-score of -0.3 and up is Criterion met, under -0.3 is Criterion not met.

COc1ccc([Si](C)(C)[C@H]2[C@H](CC(=O)N3CCC[C@H]3CO)O[C@@]3(C(=O)N(Cc4ccc(N5CCC5=O)cc4)c4ccccc43)[C@@H]2C)cc1 ... Criterion not met

Lookup: Quick check: does CC(C)CNC(=O)[C@@]1(C)c2ccccc2C(=O)N(Cc2cc(C(F)(F)F)cc(C(F)(F)F)c2)[C@H]1c1ccc(CO)cc1 have z-score greater than or equal to -0.3?
Found: Criterion met

Lookup: Quick check: does CC(C)[C@H]1NC(=O)[C@@]23C(=O)N[C@@H](Cc4ccccc4)C2[C@H](C)[C@@]2(C)O[C@H]2C3/C=C/CCC/C=C/CNC(=O)[C@H](Cc2ccccc2)NC1=O (some centres not stated) have z-score greater than or equal to -0.3?
Found: Criterion not met

Lookup: Quick check: does COc1cc2c(cc1OC)CN(C(=O)[C@@H]1[C@H]3C(=O)O[C@H](c4ccccc4)[C@H](c4ccccc4)N3[C@H](c3ccc(O)cc3)[C@@]13C(=O)Nc1ccc(C#CCCO)cc13)CC2 have z-score greater than or equal to -0.3?
Found: Criterion not met

Lookup: Quick check: does CO[C@H]1O[C@H](CO)[C@@H](OC(=O)Nc2ccc(C#N)cc2)[C@@H]2OC(=O)[C@H](Cc3cccc(Br)c3)C/C=C/C[C@@H](Cc3cccc(Br)c3)C(=O)O[C@@H]12 have z-score greater than or equal to -0.3?
Found: Criterion met

Lookup: Quick check: does C=C(CCCC)C(=O)CC[C@H](OC(C)=O)c1ccc(OCCO)cc1 have z-score greater than or equal to -0.3?
Found: Criterion met

Lookup: Quick check: does O=C1[C@@]23C=C(Br)[C@H](C[C@@H]2COC3)[C@@]12CO2 have z-score greater than or equal to -0.3?
Found: Criterion met

* * *

- method_description: small-molecule binders of probe aNOTCH3, primary screen, biochemical, small-molecule microarray, 635/667 nm fluorescence (AID 1120);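 further: probe is a biotin-tagged antibody raised against NOTCH3 rather than NOTCH3 protein; score merges spot fluorescence near 667 nm with spot signal to noise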
- measurement_setup: higher = more signal
Label rule, in plain words: composite z-score of 0.3 and up is Condition met, under 0.3 is Condition not met.

Consider the worked cases shown below.
CCOC(=O)C1=C[C@@H](C(C)(C)C)N(S(=O)(=O)c2ccc(C)cc2)[C@H]1c1ccccc1 ... Condition not met
CCCCNC(=O)c1ccc(C#C[Si](C(C)C)(C(C)C)C(C)C)c(OC(C)=O)c1 ... Condition not met
[N-]=[N+]=NC[C@H](Cc1ccccc1)NC(=O)c1ccccc1 ... Condition not met
O=C1N[C@@H](Cc2ccccc2)C(=O)N2[C@@H]1C[C@@H](C(=O)O)[C@H]2c1ccc(O)cc1 ... Condition met
C=CCC(OC(C)=O)[C@@H]1[C@@H](N(Cc2cccc3ccccc23)C(=O)c2ccc(-c3ccccc3)cc2)c2cc(OCCCO)ccc2N1C(=O)c1ccc(-c2ccccc2)cc1 (some centres not stated) ... Condition not met
CN1C(=O)[C@@H]2[C@@H](CC(COc3ccccc3)=C([C@H](O)CCc3ccccc3)[C@@H]2CO)C1=O ... Condition not met
CC(C)(C)OC(=O)CC[C@]1(C(=O)N2CCCCC2)COC(c2ccc(OCCCO)cc2)=N1 ... Condition not met
CN1C(=O)C2C(C1=O)C1C=C(CCCO)C2C(c2cccs2)N1Cc1cc2c(cc1Br)OCO2 (configuration not stated) ... Condition met
CN1C(=O)C2C=CC(C(O)c3cc(C(F)(F)F)cc(C(F)(F)F)c3)N(NC(=O)OC(C)(C)C)C2C1=O (configuration not stated) ... Condition met
C=C(CCCC)C(=O)CC[C@@H](OC(=O)c1cccnc1)c1ccc(OCCO)cc1 ... Condition not met

Lookup: Quick check: does O=C1C2C=CC(C(O)c3ccc(I)cc3)N(Nc3ccccc3)C2C(=O)N1c1ccccc1 (configuration not stated) have composite z-score greater than or equal to 0.3?
Found: Condition not met

Lookup: Quick check: does O=c1cccc(-c2ccco2)o1 have composite z-score greater than or equal to 0.3?
Found: Condition not met
